target: vanilloid receptor (VR1) (Homo sapiens); construct: expressed in transfected cells; host or cells: CHO K1 cells (ECACC), stably transfected; assay: FLIPR Ca2+ influx assay on CHO K1 cells transfected with the VR1 gene (pharmacological method II); type: cell-based; settings: CHO-K1; @ 5 μM; read-out: inhibition in percent, Ki (human) Cap.
Sequence (Q8NER1 whole entry): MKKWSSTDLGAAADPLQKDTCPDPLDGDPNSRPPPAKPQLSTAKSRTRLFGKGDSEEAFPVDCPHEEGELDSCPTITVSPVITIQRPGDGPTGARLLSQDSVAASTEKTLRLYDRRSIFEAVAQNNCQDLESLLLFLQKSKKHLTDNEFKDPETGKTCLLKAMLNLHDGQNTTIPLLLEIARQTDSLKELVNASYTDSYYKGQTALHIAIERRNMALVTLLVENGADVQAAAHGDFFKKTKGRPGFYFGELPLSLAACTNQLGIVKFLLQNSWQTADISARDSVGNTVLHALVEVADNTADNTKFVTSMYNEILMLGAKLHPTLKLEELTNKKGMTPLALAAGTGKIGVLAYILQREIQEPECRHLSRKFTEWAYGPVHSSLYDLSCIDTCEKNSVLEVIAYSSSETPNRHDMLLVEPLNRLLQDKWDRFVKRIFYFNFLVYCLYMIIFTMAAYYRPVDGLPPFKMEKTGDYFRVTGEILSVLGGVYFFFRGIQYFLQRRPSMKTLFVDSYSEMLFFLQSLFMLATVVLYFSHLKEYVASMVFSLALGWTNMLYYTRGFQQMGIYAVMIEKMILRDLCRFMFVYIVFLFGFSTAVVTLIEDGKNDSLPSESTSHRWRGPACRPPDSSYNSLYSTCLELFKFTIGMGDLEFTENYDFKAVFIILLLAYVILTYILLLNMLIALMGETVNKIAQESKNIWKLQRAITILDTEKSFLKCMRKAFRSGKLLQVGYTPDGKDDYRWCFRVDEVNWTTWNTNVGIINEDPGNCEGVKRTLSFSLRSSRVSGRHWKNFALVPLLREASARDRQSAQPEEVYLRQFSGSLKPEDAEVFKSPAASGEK
Parameter: inhibition at 5 µM. Scope: all listed entries.
reported metric: inhibition at 5 µM (%)

{"molecule": "CC(C(=O)NCc1ccc(C(F)(F)F)nc1-c1ccc2[nH]ccc2c1)c1ccc(NS(C)(=O)=O)c(F)c1 (centres unmarked)", "data value": 78}
{"molecule": "CC(C(=O)NCc1ccc(C(F)(F)F)nc1OCC1CCNCC1)c1ccc(NS(C)(=O)=O)c(F)c1 (centres unmarked)", "data value": 55}
{"molecule": "CC(C(=O)NCc1ccc(C(F)(F)F)nc1OC1CCNCC1)c1ccc(NS(C)(=O)=O)c(F)c1 (centres unmarked)", "data value": 34}
{"molecule": "CC1CCN(c2nc(C(F)(F)F)ccc2CNC(=O)C(C)c2ccc(NS(=O)(=O)C(F)(F)F)c(F)c2)CC1 (centres unmarked)", "data value": 68}
{"molecule": "CC(C(=O)NCc1ccc(C(F)(F)F)nc1N1CCS(=O)(=O)CC1)c1ccc(NS(C)(=O)=O)c(F)c1 (centres unmarked)", "data value": 46}
